Assign cell viability to each entry below.
Tested on: SEM cells
Assay Protocol: cell viability relative to DMSO control; higher = less cytotoxic
Conditions Used: HPLM + 10% dialyzed FBS; 48 h; 46.1 µM
Respond with the figure and its unit, in that order.

Ask: Query: cell viability; subject: C[C@]12CC[C@H]3[C@@H](C\C=C/4C[C@@H](O)CC[C@]34C)[C@@H]1CCC2=O
Result: 103%

Ask: # get_value(readout='cell viability', item= COc1cc([C@H]2Oc3cc([C@H]4Oc5cc(O)cc(O)c5C(=O)[C@@H]4O)ccc3O[C@@H]2CO)ccc1O )
Result: 92.7%

Ask: Reported cell viability, compound CC[C@@]1(O)C(=O)OC\C2=C1\C=C\3N(CC4=C3N=C5C=CC=CC5=C4)C2=O : ____
Result: 5.06%

Ask: Need cell viability, item CN1CCC[C@@H]1CCO[C@](C)(c1ccccc1)c1ccc(Cl)cc1
Result: 81.4%

Ask: cell viability lookup needed for O=C(O)CCn1c2c(c3ccccc31)C[C@H](N[S+](=O)([O-])c1ccc(F)cc1)CC2 , thanks.
Result: 104%

Ask: Sample C[C@H]1[C@@H](C(=O)C[C@H]2O[C@@H]3O[C@]4(C)CC[C@H]5[C@H](C)CC[C@@H]([C@H]2C)[C@@]35OO4)O[C@@H]2O[C@]3(C)CC[C@H]4[C@H](C)CC[C@@H]1[C@@]24OO3 — what was its cell viability?
Result: 6.82%

Ask: For COC/1=C/C=C2\C(=C/C1=O)[C@H](CCC3=CC(=C(OC)C(=C23)OC)OC)NC(C)=O , what is its reported cell viability?
Result: 3.47%
